TESTED SYSTEM: recombinant human full-length DYRK1A protein (Homo sapiens, UniProt Q13627)
Construct: recombinant human full-length DYRK1A protein; GST
PROTOCOL: DYRK1A Kinase Assay (microfluidics detection)
TEST PARAMETERS: enzyme 0.01 nM, ATP 20 μM, DYRKtide peptide 1 μM, 3 h
pIC50: −log10 of the molar value.
Answer each item with its documented pIC50.

Use the examples below as a reference point.
- SAMPLE SMILES: "O=C1c2scc(Br)c2CN1c1cccc(-c2nncn2C2CC2)n1"
  OBSERVED VALUE: "5.00 to 6.00"
- SAMPLE SMILES: "Cc1cc2c(s1)C(=O)N(c1cccc(-c3nncn3C3CC3)n1)C2"
  OBSERVED VALUE: "6.00 to 6.70"
- SAMPLE SMILES: "COc1cc2c(s1)C(=O)N(c1cccc(-c3nncn3C3CC3)n1)C2"
  OBSERVED VALUE: "6.00 to 6.70"
- SAMPLE SMILES: "CCc1cc2c(s1)C(=O)N(c1cccc(-c3nncn3C3CC3)n1)C2"
  OBSERVED VALUE: "> 6.70"
- SAMPLE SMILES: "CC(C)CNc1csc2c1CN(c1cccc(-c3nncn3C3CC3)n1)C2=O"
  OBSERVED VALUE: "5.00 to 6.00"

Value sought for every listed compound: pIC50.
1. O=C1c2sc(C3CCOCC3)cc2CN1c1cccc(-c2nncn2C2CC2)n1
2. CC(=O)c1ccccc1-c1cc2c(s1)C(=O)N(c1cccc(-c3nncn3C3CC3)n1)C2

Result block:
1. > 6.70
2. 6.00 to 6.70

Respectfully, I request pIC50 for each entry included below.
1. O=C1c2sc3ccccc3c2CN1c1cccc(-c2nncn2C2CC2)n1
2. O=C1c2sccc2CN1c1cccc(-c2nncn2C2CC2)n1
3. CN(C)c1cc2c(s1)C(=O)N(c1cccc(-c3nncn3C3CC3)n1)C2
4. O=C1c2scc(-c3ccccc3)c2CN1c1cccc(-c2nncn2C2CC2)n1

Result block:
5.00 to 6.00
6.00 to 6.70
6.00 to 6.70
5.00 to 6.00

Count: 3. Required value per item: pIC50.
1. O=C1c2scc(C3CCOCC3)c2CN1c1cccc(-c2nncn2C2CC2)n1
2. Cc1csc2c1CN(c1cccc(-c3nncn3C3CC3)n1)C2=O
3. CC(C)n1cnnc1-c1cccc(N2Cc3ccsc3C2=O)n1

Result block:
5.00 to 6.00
5.00 to 6.00
> 6.70
